Assay Name: yeast display, Sf9 membrane polyspecificity reagent, FACS + sequencing; frameworks hold sequencing errors
Observed Property: polyreactivity (PSR sort gate)

QVQLVESGGGLVQAGGSLRLSCAASGSIIQQYDKGWYRQAPGKHREFVAANSSSGGSTYYADSVKGRFTISRDNAKNTVYLQMNSLKPEDTAVYYCAVDTKGYTYVDYLHGSGEFGYWGQGTQVTVSS ... low polyreactivity
QDQLVESGGGLVQAGGSHRLSSAASGSILGAYAMGWYRQPPVKERELVAAISRNGGSTYYADSVKGRFTISRDNAKNTVYLQMNRLKPEDTAVYYCAAYYYDNEYDYWGQGTQVTVSS ... high polyreactivity
QVQLVESGGGLVQAGASLRLSCAGSGIIFTRYAMGWYRQAPGKERELVAAITRNGVSTYYADSVKGRFTISRDNAKNTVYLQMNSLKPEDTAVYYCNTYVLRRYAYGYWGQGTQVTVSS ... high polyreactivity
QVQLVESGGGLVQAGGSLRLSCAASGIIFQRNDMGRYRQAPGKERELVANIRDGGITYADSVKGRFTISRDNAKNTVYLQMNSLKPEDTAVYYCARDDTSPGYGDQSSNAAYYYWGQGTQVTVSS ... low polyreactivity
QVQLVESGGGLVQAGGSLRLSCAASGSTQRGYARGWYRQAPGKERELVASISRRGGSTYYADSVKGRFTISRDNAKNTVYLQMNSLKPEDTAVDYCAATGRRGYGYGYWGQGTQVTVSS ... high polyreactivity
QVQLVESGGGLVQAGGSLRLSCAASGLIFVPYAMGWYRQAPGKERELVAAINSGATTYYADSVKGRFTISRDNAKNTVYLQMNSLKPEDTAVYYCNAEYPVYVYWFDYWGQGTQVTVSS ... high polyreactivity
QVQLVESGGGLVQAGGSLRLICAASGSIFRYYAMGWYRQAHGKERELLAAISYSGGSTYYADSVKGRFTISRDNAKNTVYLQMNSLKPEDTAVYYCAKGRHTTRASIAFNYWGQGTQVTVSS ... high polyreactivity
QVQLVESGGGLVQAAGSLRLSCAASGRTFKYNAMGWYRQAPGKERELVAAITRSGTTYYADSVKGRFTISRDNAKNTVYLQMNSLKPEDTAVYYCNARIVNYGSYYYWGQGTQVTVSS ... high polyreactivity
QVQLVESGGGLVQAGGSLRLSCAASGGIFTNNAMGWYRQAPGKERELVAAITGSGASTYYADSVKGRFTISRDNAKNTVYLQMNSLKPEDTAVYYCAALSKYYAPLSRYDYWGQGTQVTVSS ... high polyreactivity
QVQLVESGGGLVQAGGSLRLSCAASGITFRYYVMGWYRQAPGKERELVASISWGGGSTYYADSVKGRFTISRDNAKNTVYLQMNSLKPEDTAVYYCAARVPRPSYRGMNYWGQGTQVTVSS ... high polyreactivity

Shifting focus to the sequence that follows.
Q. Name the reported polyreactivity (PSR sort gate) value associated with the sequence `QVQLEESGGGLVQAGGSLRLSCAASGSIIYAYAMGWSRQAPGKERELVDGIRDGGSTYYADSVKWRFTISRDNAKNTVYLQMNSLKPADTAVYYCAAGPRIRDDYWGQGTQVTVSS`
A. low polyreactivity

* * *

Assay Name: yeast display, Sf9 membrane polyspecificity reagent, FACS + sequencing; frameworks hold sequencing errors
Observed Property: polyreactivity (PSR sort gate)

Study these solved cases before continuing.
QVQLVESGGGLVQAGGSLRLSCAASGSTFTYYAMGWYRKAPGKETELVAAIDFSGTSTYYADSVKGRFTISRDNAQNTVYLKMNSLKPEDTSVYYCAASQSWYWGGAHDNGEFGYWGQGTQVTVSS ... low polyreactivity
QVQLVESGGGLVQAGGSLRLSCAASGYTYRWYAMGWYRQAPGKEREMVAAINRNGGSTFYADSVKGRFTISRDNAKNSVYLQMNSLKPEDTAVYFCAARYSSLPRYLTDGLDYWGQGTQVTVSS ... high polyreactivity
QVQLEESGGGLVQAGGSLRLSCAASGFIFFKYAMGWYRQAPGKEREFVAAISKSGTSTYYADSVKGRFTISRDNAKNTVYLQMNSLKPEDTAVYYCAKRYLTRYKGYYYWGQGTQVTVSS ... high polyreactivity
QVQLQESAGGLVQAGGSLRLRCSASGYISCDASMGWYRQAAGKERELAASITKGSSTNYADSVKGRFTIRDNAKNTVYLQMNSLKPEDTAVCYCAVTYPYWGDYTYWGQGTQVTVSS ... low polyreactivity

Q. Name the reported polyreactivity (PSR sort gate) value associated with the sequence `QVQLVESGGGLVQAGGSLRLSCAASGRILSVYAMGWYRQAPGKERELVAAIDYSGGSTNYADSVKGRFTISRDNAKNTVYLQMNSLKPEDTAVYYCNREGGAIAWRYLLEYLYSWGQGTQVTVSS`
A. low polyreactivity

* * *

Assay Name: yeast display, Sf9 membrane polyspecificity reagent, FACS + sequencing; frameworks hold sequencing errors
Observed Property: polyreactivity (PSR sort gate)

Study these solved cases before continuing.
QVQLVESGGGLVQAGGSLRLSCAASGRTLSFYAMGWYRQAPGKERELVAAISRRGGSTYYADSVKGRFTISRDNAKNTVYLQMNSLKPEDTAVYYCAARRWYPYKNYDYWGQGTQVTVSS ... high polyreactivity
QVQLVESGGGLVQAGGSLRLSCAASGRIFGSYGMGWYRQAPGKEWELVAAITPSGTSTYYADSVKGRFTISRDNAKNTVYLEMNSLKPEDTAVYNCNALFYRRYAFAFGYWRQGTQVTVSS ... high polyreactivity
QVQLVESGGGLVQAGGSLRLSCAASGITFEGYAMGWYRQAPGNEREFVAAITSTGTSTRYADSVKGRFTISRDNAKNTVYLQMNSLKPEDTAVYYCAATSHFLSWHLRYYWGQGTQVTVSS ... high polyreactivity
QVQLVESGGGLVQAGGSLRLSCAASGFIFPGYTRGWYRQAPGKEWELVAAISRGSSTYYADSVKGRFTISRDNAKNTVYLQMNSLKPEDTSVYYCNTRVYAITLYDYWGQGTQVTVSS ... low polyreactivity

Shifting focus to the sequence that follows.
Q. Name the reported polyreactivity (PSR sort gate) value associated with the sequence `QVQLLESGGGIVQEGGSLRLSCAASGRIFSPYAMGWYRQAPGKERELVAAITWSGVSTYYADSVKGRFTLSRDNAKNSVYFQMNSLKPEDTAVYYSAVDPRGHEGVRYNYWVQGTQVTVSS`
A. low polyreactivity

* * *

Assay Name: yeast display, Sf9 membrane polyspecificity reagent, FACS + sequencing; frameworks hold sequencing errors
Observed Property: polyreactivity (PSR sort gate)

QVQLVESGGGLVQAGGSLRLSCAASGFIFTNVMGWYRQAPGKERELVASISSGGRTYYADSVKGRFTISRDNAKNTVYLQLNSLKPEDTAVYYCAKKKLLSVPARGYDYVYYWGQGTQVTVSS ... high polyreactivity
QVQLVESGGGLVQAGGSLRLSCAASGIILPWNAMGWYRQAPGKERELVAAISWSGTSTYYADSVQGRFTISRDNAKNTVYLQMNSLKPEDTAVYYCAAAYWWSWRYDYWGQGTQVTVSS ... low polyreactivity
QVQLVESGGGLVQAGASLRLSCAASGRIFSGNAMGWYRQAPGKERELVAAISRGGSTDYADSVKGRFTSSRDNAKNTVYLQMNSLKPEDTAVYYCADRVNGKRRRYDYWGQGTLVTVSS ... high polyreactivity
QVQLVESGGGLVQAGGSLRLSCAASGYTFVLNAMGWYRQAPGKEREMVAAINLDSGNTNYADSVKGRFTISRDNAKNTVYLQMNSLKPEDTAVYYCNTDVKFGGTAYDYWGQGTQVNVSS ... low polyreactivity
QVQLVESGGGLVQAGGSLRLSCAASGRTFPYNAMGWYRQATGKERELVATINTSGASTSYADSVKRRFTISRDNEKNTVYLQMNSLKPEVTAVYYCNRDRRYYHRFDYWGQGTQVTVSS ... low polyreactivity
QVQLVEAGGGFVQAGGSLRLSCAASGSIIVPYAMGWYRQPPGKESELVAAISSRGGRTYYADSVKGRFTISRENAMNSVYLQMNSLKPEDSAVYDCNKTGGSHIPRLEYWGQGTQVTVSS ... low polyreactivity

// for each sequence in input: emit polyreactivity (PSR sort gate)
1. QVQLVESGGGLVQAGGSLRLSCAASGSIYRWYAMGWYRQAPGKERELVASISSGTRTNYADSVKGRFTISRDNAKNTVYLQMNSLKPEDTAVYYCAAPYVKRWWGYGYWGQGTQVTVSS
2. QVQLVESGGGLVQAGGSLRISCAASGRTFGINAMGWYRQAPGKERELVAAISSSGSTYYADSVKGRFTISRDNAKNTVYLQMNSLKPEDTAVYYCAAVAKQWGNTYYYWGQGTQVTVSS
3. QVQLVESGGGLVQARGTRRLSSAACGRTFGSYAMGWYRQAPGKERELVAAISRSDGSTYYADSVKGRFSISRDNEKNTVYFQMNSLKPEDTAVYYCAAKRWYVSYDYDYWGQGTQVTVSS

A.
["high polyreactivity", "high polyreactivity", "high polyreactivity"]

// for each sequence in input: emit polyreactivity (PSR sort gate)
1. QVQLVESGGCLVPAGGSLRLSCAASGRTFYYNAMGWYRQAPGKERELVAAISSSGGRTYYADSVKGRFTISRDNGKNTVYLQMNSLKPEDTAVFYCAALTNARGFDYWGQGTQVTVSS
2. QVQLVESGGGLVQAGGSLRLSCAASGFNTRLYAMGWYRQAPGKEREFVAAISWDGTRTYYADSVKGRFTISRDTANKTFYLQMNSLKPEDTAVSYCNARRRQWQARYDYWGQGTQITVSS
3. QVQLVESGGGLVQAGGSLRLSCAASGRTFRWYAMGWYRQAPGKERELVAAINPGGSTNYADSVKGRFTISRDNAKNSVYLQMNSLKPEDTAVYYCNAAGYDALTHNYYWGQGTQVTVSS
4. QVQLVEPGGGLVQAGGSLRLSCAASGSTFTLYAMGWYRQAPGKERELVATLTGSAGSTNYADSVKGRFTISRDNAKNTVYLQMNSLKPEDTAVYYCAKRVQQSTWYGYGIGYEYWGQGTQVTVSS
5. QVQLVESGGGLDQAGGSLRLSCAASGLTFQWNAMGWYRQAPGKERELVAGITDIGDSTYYADSVKGRFTISRDNAKHTDYLQLNSLKPEDTAVYYCNATSGYKHAWRSENGYWGQGTQVTVSS

A.
1. high polyreactivity
2. high polyreactivity
3. low polyreactivity
4. high polyreactivity
5. low polyreactivity

// for each sequence in input: emit polyreactivity (PSR sort gate)
1. QVQLQESGGGLVQAGGSLRLSCAASGSIFDGFNMGWYRQAPGKEREFVAAISYGASTYYADSVKGRFTVSRDNAKNSVYLQMNSLKPEATAVYYCAVYDELYHVLVYWGRGTQVTVSS
2. QVQLVESGGGLVQAGGTLRLSCAASGSIQYRYAMGWYRQAHGKERELVAAISARGGNTYYADSVKGRFTISRDNAKNTVYVQMNSLKPEDTAVYYCAATYRGYRLHVAYDYWGQGTQVTVSS
3. QVQLVESGGGLVQAGGSLRLSCAASGRIFKTYAMGWYRPAPGTERELVAGISWRGGSTYYADSVKGRFTISRDNAKNTVYLQMNSLKPEDTAVYYCAADDTYTRYDYWGQGTQVTVSS

A.
low polyreactivity
high polyreactivity
high polyreactivity

// for each sequence in input: emit polyreactivity (PSR sort gate)
1. QDQLVESGGGLVQAGGSLRLSCAASGLIVGDYAMGWYRQAPGKERELVAAITGSVTRTYYADSVKGRFTISRDNAKNTVYLQMNSLKPEDTAVYYCATRVHYIGFYDYDYWGQGTQVTVSS
2. QVQLVESGGGLVQAGGSLRLSCAASGSTFYYYAMGWYRQAPGKERELVAAITYRGGSTYYADSVKGLFTISRDNAKNTVYLQMNSLKPEDTAVYYCSKVGYKTSSIRYGYWGQGTQVTVSS
3. QVQLVESGGGLVQAGGSLRLSCAASGRTFRYYVMGWYRQAPGKERELVAAINRRGDNTYYADSVKGRLTISRDNAKNTVYLQMNSLKPEDTAVYYCAARREPYQYNQYYSWGQGTQVTVSS
4. QVQLVESGGGLVQAGGSLRLSCAASGITFSSYAMGWYRQAPGKERELVAGITRRGGITYYADSVKGRFTISRDNAKNTVYLQMNSLNPEDTAVYYCAATHRFRSGSPDGGYGYWGQGTQVTVSS

A.
1. low polyreactivity
2. high polyreactivity
3. high polyreactivity
4. high polyreactivity
